# reported pIC50; entries follow
- System: L1210
- protocolText: Concentration that produces 50 % inhibition of proliferation of L1210 cells in suspension culture in 48 h,
- Assay type: functional, cell-based
- conditionSet: Mus musculus, L1210, 48 h; read-out: I50
pIC50: −log10 of the molar value.
resultType: pIC50

• Cc1cn(C2CC(O)C(CCC(=O)CI)O2)c(=O)[nH]c1=O (configuration not stated) = 4.70
• Cc1cn(C2CC(O)C(C(=O)Nc3ccc(C(=O)CCl)cc3)O2)c(=O)[nH]c1=O (configuration not stated) = 4.55
• Cc1cn(C2CC(O)C(CCC(=O)CCl)O2)c(=O)[nH]c1=O (configuration not stated) = 4.18
• Cc1cn(C2CC(O)C(C(=O)Nc3ccc(C(=O)CBr)cc3)O2)c(=O)[nH]c1=O (configuration not stated) = 5.22
• Cc1cn(C2CC(O)C(C(=O)Nc3ccc(C(=O)CI)cc3)O2)c(=O)[nH]c1=O (configuration not stated) = 5.10
• Cc1cn(C2CC(O)C(CCC(=O)CBr)O2)c(=O)[nH]c1=O (configuration not stated) = 3.96

* * *

- Tested on: HEp-2
- protocolText: Concentration that produces 50 % inhibition of cloning of H.Ep.-2 cells in suspension culture, over a 12-day period
- Type: functional, cell-based
- conditionSet: Homo sapiens, HEp-2, 288 h; read-out: I50
resultType: IC50 (µM)

* Cc1cn(C2CC(O)C(CCC(=O)CCl)O2)c(=O)[nH]c1=O (configuration not stated) | 25
* Cc1cn(C2CC(O)C(CCC(=O)CBr)O2)c(=O)[nH]c1=O (configuration not stated) | 55
* Cc1cn(C2CC(O)C(C(=O)Nc3ccc(C(=O)CBr)cc3)O2)c(=O)[nH]c1=O (configuration not stated) | 12
* Cc1cn(C2CC(O)C(C(=O)Nc3ccc(C(=O)CCl)cc3)O2)c(=O)[nH]c1=O (configuration not stated) | 30
* Cc1cn(C2CC(O)C(CCC(=O)CI)O2)c(=O)[nH]c1=O (configuration not stated) | 17
* Cc1cn(C2CC(O)C(C(=O)Nc3ccc(C(=O)CI)cc3)O2)c(=O)[nH]c1=O (configuration not stated) | 29

* * *

- protocolText: Half-life period determined in water at room temperature.
- Assay type: ADME
resultType: half-life (h)

* Cc1cn(C2CC(O)C(C(=O)Nc3ccc(C(=O)CI)cc3)O2)c(=O)[nH]c1=O (configuration not stated) | 13
* Cc1cn(C2CC(O)C(C(=O)Nc3ccc(C(=O)CBr)cc3)O2)c(=O)[nH]c1=O (configuration not stated) | 4
* Cc1cn(C2CC(O)C(CCC(=O)CBr)O2)c(=O)[nH]c1=O (configuration not stated) | 1.8
* Cc1cn(C2CC(O)C(CNC(=O)c3ccc(C(=O)CBr)cc3)O2)c(=O)[nH]c1=O (configuration not stated) | 1
* Cc1cn(C2CC(O)C(CCC(=O)CI)O2)c(=O)[nH]c1=O (configuration not stated) | 4

# credit: ChEMBL document CHEMBL1122739
